Where do the numbers come from? From ChEMBL document CHEMBL6078637.

# Test method notes: Inhibition of quorum sensing system in Pseudomonas aeruginosa PAO1 harboring mini-ctx-lasB-lacZ at 10 uM measured after 16 hrs by ONPG test relative to control
Measured inhibition determines class: group 1 = under 3%, group 2 = from 3% up to 5%, group 3 = 5% and over

Enquiry: Band assignment needed for C[n+]1c(/C=C/c2cc3ccccc3[nH]2)sc2ccccc21 please.
Return: group 1

====

# Test method notes: Inhibition of quorum sensing system in Pseudomonas aeruginosa PAO1 harboring mini-ctx-lasB-lacZ at 10 uM measured after 16 hrs by ONPG test relative to control
Everything with inhibition lower than 2% is Criterion not met; everything else, including exactly 2%, is Criterion met.

Below are worked cases with known answers.
>  <Input smiles>
C[n+]1c(/C=C/c2coc3ccccc3c2=O)ccc2ccccc21

>  <Label value>
Criterion not met

$$$$
>  <Input smiles>
C[n+]1c(/C=C/c2cscn2)sc2ccccc21

>  <Label value>
Criterion met

$$$$
>  <Input smiles>
C[n+]1c(/C=C/c2ccc3nc[nH]c3c2)sc2ccccc21

>  <Label value>
Criterion met

$$$$
>  <Input smiles>
C[n+]1c(/C=C/c2ccc3nc[nH]c3c2)ccc2ccccc21

>  <Label value>
Criterion not met

$$$$
>  <Input smiles>
C[n+]1c(/C=C/c2c[nH]c3ccc(O)cc23)ccc2ccccc21

>  <Label value>
Criterion met

$$$$
>  <Input smiles>
C[n+]1c(/C=C/c2cccc3c2CCO3)ccc2ccccc21

>  <Label value>
Criterion met

$$$$
>  <Input smiles>
Cc1cc(=O)c(O)c(/C=C/c2sc3ccccc3[n+]2C)o1

>  <Label value>
Criterion met

$$$$
>  <Input smiles>
C[n+]1c(/C=C/c2cccc3ocnc23)ccc2ccccc21

>  <Label value>
Criterion met

$$$$
>  <Input smiles>
C[n+]1c(/C=C/c2cc3ccccc3[nH]2)ccc2ccccc21

>  <Label value>
Criterion not met

$$$$
>  <Input smiles>
C[n+]1c(/C=C/c2ccc3ccc(=O)oc3c2)sc2ccccc21

>  <Label value>
Criterion met

$$$$

--- query ---
Enquiry: Is reported inhibition greater than or equal to 2% here: C[n+]1c(/C=C/c2c[nH]c3cc(F)ccc23)ccc2ccccc21
Return: Criterion met

====

# Test method notes: Inhibition of quorum sensing system in Pseudomonas aeruginosa PAO1 harboring mini-ctx-lasB-lacZ at 10 uM measured after 16 hrs by ONPG test relative to control
Measured inhibition determines class: lower range = under 4%, middle range = from 4% up to 20%, upper range = 20% and over

>  <Input smiles>
COc1ccc2c(/C=C/c3ccc4ccccc4[n+]3C)c[nH]c2c1

>  <Label value>
middle range

$$$$
>  <Input smiles>
Cc1ccc2c(/C=C/c3ccc4ccccc4[n+]3C)c[nH]c2c1

>  <Label value>
middle range

$$$$
>  <Input smiles>
C[n+]1c(/C=C/c2ccc3ocnc3c2)sc2ccccc21

>  <Label value>
lower range

$$$$
>  <Input smiles>
C[n+]1c(/C=C/c2c[nH]c3ccc(Br)cc23)ccc2ccccc21

>  <Label value>
lower range

$$$$
>  <Input smiles>
C[n+]1c(/C=C/c2c[nH]c3ccccc23)ccc2ccccc21.[I-]

>  <Label value>
upper range

$$$$

Enquiry: Band assignment needed for C[n+]1c(/C=C/c2c[nH]c3ccccc23)sc2ccccc21 please.
Return: upper range

Enquiry: Band assignment needed for C[n+]1c(/C=C/c2c[nH]c3ccc(F)cc23)ccc2ccccc21.[I-] please.
Return: upper range

Enquiry: Band assignment needed for C[n+]1c(/C=C/c2c[nH]c3ccc(Cl)cc23)ccc2ccccc21 please.
Return: middle range

Enquiry: Band assignment needed for C[n+]1c(/C=C/c2ccc3c(c2)CCO3)sc2ccccc21 please.
Return: lower range

Enquiry: Band assignment needed for Cc1cc(=O)c(O)c(/C=C/c2ccc3ccccc3[n+]2C)o1 please.
Return: middle range
